Data provenance: the supplement of paper PMC10307832

# Tested on: HCC-827
# Experiment description: relative viability (nuclei count vs DMSO), 5 days (fraction); higher = more cells survive
# Run parameters: first compound 0.006325 µM
Endpoint label: relative viability
Please give only the number in your answer, with no unit.

Q: Entry CC(=O)O[C@@]12CO[C@@H]1C[C@H](O)[C@@]1(C)C(=O)[C@H](O)C3=C(C)[C@@H](OC(=O)[C@H](O)[C@@H](NC(=O)OC(C)(C)C)c4ccccc4)C[C@@](O)([C@@H](OC(=O)c4ccccc4)[C@H]21)C3(C)C [Docetaxel] + Cc1nc(Nc2ncc(C(=O)Nc3c(C)cccc3Cl)s2)cc(N2CCN(CCO)CC2)n1 [Dasatinib] (partner 0.075 µM) , system HCC-827: what relative viability was measured?
Result: 0.22

Q: Entry CC(=O)O[C@@]12CO[C@@H]1C[C@H](O)[C@@]1(C)C(=O)[C@H](O)C3=C(C)[C@@H](OC(=O)[C@H](O)[C@@H](NC(=O)OC(C)(C)C)c4ccccc4)C[C@@](O)([C@@H](OC(=O)c4ccccc4)[C@H]21)C3(C)C [Docetaxel] + Cc1cc(Nc2cc(N3CCN(C)CC3)nc(Sc3ccc(NC(=O)C4CC4)cc3)n2)n[nH]1 [Tozasertib] (partner 0.1 µM) , system HCC-827: what relative viability was measured?
Result: 0.332

Q: Entry CC(=O)O[C@@]12CO[C@@H]1C[C@H](O)[C@@]1(C)C(=O)[C@H](O)C3=C(C)[C@@H](OC(=O)[C@H](O)[C@@H](NC(=O)OC(C)(C)C)c4ccccc4)C[C@@](O)([C@@H](OC(=O)c4ccccc4)[C@H]21)C3(C)C [Docetaxel] + NC(=O)Nc1cc(-c2cccc(F)c2)sc1C(=O)N[C@H]1CCCNC1 [AZD7762] (partner 0.2 µM) , system HCC-827: what relative viability was measured?
Result: 0.165

Q: Entry CC(=O)O[C@@]12CO[C@@H]1C[C@H](O)[C@@]1(C)C(=O)[C@H](O)C3=C(C)[C@@H](OC(=O)[C@H](O)[C@@H](NC(=O)OC(C)(C)C)c4ccccc4)C[C@@](O)([C@@H](OC(=O)c4ccccc4)[C@H]21)C3(C)C [Docetaxel] + CS(=O)(=O)N1CCN(Cc2cc3nc(-c4cccc5[nH]ncc45)nc(N4CCOCC4)c3s2)CC1 [Pictilisib] (partner 1 µM) , system HCC-827: what relative viability was measured?
Result: 0.466

Q: Entry CC(=O)O[C@@]12CO[C@@H]1C[C@H](O)[C@@]1(C)C(=O)[C@H](O)C3=C(C)[C@@H](OC(=O)[C@H](O)[C@@H](NC(=O)OC(C)(C)C)c4ccccc4)C[C@@](O)([C@@H](OC(=O)c4ccccc4)[C@H]21)C3(C)C [Docetaxel] + CC(=O)Nc1cccc(-n2c(=O)n(C3CC3)c(=O)c3c(Nc4ccc(I)cc4F)n(C)c(=O)c(C)c32)c1 [Trametinib] (partner 0.02 µM) , system HCC-827: what relative viability was measured?
Result: 0.272

Q: Entry CC(=O)O[C@@]12CO[C@@H]1C[C@H](O)[C@@]1(C)C(=O)[C@H](O)C3=C(C)[C@@H](OC(=O)[C@H](O)[C@@H](NC(=O)OC(C)(C)C)c4ccccc4)C[C@@](O)([C@@H](OC(=O)c4ccccc4)[C@H]21)C3(C)C [Docetaxel] + COc1cc2c(Oc3ccc(NC(=O)C4(C(=O)Nc5ccc(F)cc5)CC4)cc3F)ccnc2cc1OCCCN1CCOCC1 [Foretinib] (partner 0.25 µM) , system HCC-827: what relative viability was measured?
Result: 0.362
